Reported normalized growth by item:
experiment notes: chemical genetic growth profiling, strain panel (AID 1159580);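 further: tested at 20 µM; growth read once vehicle control cultures reached saturation at 30 °C; 1 = growth at the plate median or of vehicle wells; lower values mean less growth of the strain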
test conditions: S. cerevisiae deletion strains, growth OD, locus YDL108W, strain KIN28, active compounds read low
Screen size: about 5,500 compounds; about 2,000 (36%) were called active. About 18% were inconclusive and are not listed. Some of the results follow.
Give your answer as a number; write no unit.

Observe how each entry below is paired with its result.
smiles record: CCOC(=O)/C(C#N)=C(\Nc1ccc(C(=O)OCC)cc1)SC
normalized growth: 0.972

smiles record: CCOC(=O)c1ccc(Cl)c(N=Cc2cc(Cl)cc(Cl)c2O)c1
normalized growth: 0.953

smiles record: CC(=O)c1ccc(Cl)c(N=Cc2cc(Cl)cc(Cl)c2O)c1
normalized growth: 0.935

smiles record: Cc1c(C)c(C)c(C(=O)c2ccc(N=Cc3cc(Cl)cc(Cl)c3O)cc2)c(C)c1C
normalized growth: 0.944

Measured normalized growth of `Cc1ccc(-n2cccc2)c(NS(=O)(=O)c2ccc(-c3ccno3)s2)c1` : 0.937

Measured normalized growth of `Cc1onc(-c2c(F)cccc2Cl)c1/C(N)=N\OC(=O)c1ccc(C(C)(C)C)cc1` : 0.978

Measured normalized growth of `CC(=O)c1ccc(Cl)c(N=Cc2cc(Br)cc(Br)c2O)c1` : 0.127

Measured normalized growth of `CSc1sc(C(=O)Sc2ccccc2)cc1S(=O)(=O)C(C)C` : 0.999
